Property: EC50 for stimulation of pSTAT4 signaling, CD8+ T cells in pre-activated human PBMCs; scope: individual binders
- tgt: human CD8 on human T cells (human) (UniProt P01732)
- Sequence (P01732 22-235, chain 1 of 2): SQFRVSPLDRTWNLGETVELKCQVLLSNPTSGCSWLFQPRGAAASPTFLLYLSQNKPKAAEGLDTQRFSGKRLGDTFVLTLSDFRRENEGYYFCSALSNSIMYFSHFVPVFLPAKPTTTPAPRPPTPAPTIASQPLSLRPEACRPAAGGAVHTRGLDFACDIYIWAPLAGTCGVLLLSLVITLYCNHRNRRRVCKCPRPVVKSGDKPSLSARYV
- Sequence (P10966 22-210, chain 2 of 2, further chain): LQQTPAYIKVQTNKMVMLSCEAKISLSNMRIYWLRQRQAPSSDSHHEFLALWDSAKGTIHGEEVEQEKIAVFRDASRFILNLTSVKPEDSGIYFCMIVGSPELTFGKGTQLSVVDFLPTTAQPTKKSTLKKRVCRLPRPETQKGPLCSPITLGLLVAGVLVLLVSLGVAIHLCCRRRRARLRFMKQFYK
- assay.summary: cell-based or functional assay
Report as a plain number; the unit pM is understood.

03A01-Fab-IL12 (LC) (protein, from a related filing, not shown: a dimerising Fc or GST) VH: DVQFQESGPGLVKPSQSLSLTCTVTGYSITSDFAWNWIRQFPGNELEWMGYISYSGDTNYNPSLRSRISITRDTSKNQFFLQLDSVTTEDTATYYCTIRGYYTDSAFVFWGQGTLVTVSA VL: DIQMTQSSSYLSVSLGGRVTITCKASDHINNWLAWYQQKPGNAPRLLISGATSLETGVPSRFTGSGSGLDYTLSITSLQTEDVATYYCQQYWNSPFTFGSGTKLEIK = 11.1
03A01-Fab-Fc-IL12 (LC) (protein, from a related filing, not shown: a dimerising Fc or GST) VH: DVQFQESGPGLVKPSQSLSLTCTVTGYSITSDFAWNWIRQFPGNELEWMGYISYSGDTNYNPSLRSRISITRDTSKNQFFLQLDSVTTEDTATYYCTIRGYYTDSAFVFWGQGTLVTVSA VL: DIQMTQSSSYLSVSLGGRVTITCKASDHINNWLAWYQQKPGNAPRLLISGATSLETGVPSRFTGSGSGLDYTLSITSLQTEDVATYYCQQYWNSPFTFGSGTKLEIK = 13.4
02A01-Fab-IL12 (LC) (protein, from a related filing, not shown: a dimerising Fc or GST) VH: EVQLQQSGPELVKPGASLKISCKASGYTFTDFTMHWVKQSHGKSLEWIGLVNPNNGGNIYNQNFKGKATLTVDTSSSTAYMELRSLTSEDSSVYYCGRVPLYTSHGMDYWGQGTSVTVSS VL: DIVLTQSPAFLAVSLGQRATISCRASESVDSYDINSMHWYQQKPGQPPKLLIYRASHLQSGIPARFSGSGSRTDFTLTINFVEADDVATYYCQQSNEDPLTFGAGTKLELK = 1.74

Now look at this one.
Return reported EC50 for stimulation of pSTAT4 signaling, CD8+ T cells in pre-activated human PBMCs; argument: 02A01-Fab-Fc-IL12 (LC) (protein, from a related filing, not shown: a dimerising Fc or GST) VH: EVQLQQSGPELVKPGASLKISCKASGYTFTDFTMHWVKQSHGKSLEWIGLVNPNNGGNIYNQNFKGKATLTVDTSSSTAYMELRSLTSEDSSVYYCGRVPLYTSHGMDYWGQGTSVTVSS VL: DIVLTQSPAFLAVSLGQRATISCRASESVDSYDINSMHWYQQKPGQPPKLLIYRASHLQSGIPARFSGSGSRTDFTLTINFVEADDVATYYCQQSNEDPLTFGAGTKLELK
2.11
